assay: MM1S cell viability effects, profiling panel, calcein-AM fluorescence, 48 h, basal (AID 1165); settings: higher = more signal;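 further: viability of MM1S multiple myeloma cells under basal unstimulated conditions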
recorded-metric: z-score
API note: the answer field is a bare number with no unit suffix.

Quote z-score reported for C=CCN1C(=O)[C@@]2(O[C@@H](CCn3cc([C@H](O)c4ccccc4)nn3)[C@H]([Si](C)(C)c3ccc(OC)cc3)[C@H]2C)c2cc(N3CCC3=O)ccc21 please.
-1.12

Quote z-score reported for CCOc1cc(C(O)C2C=CC3C(=O)N(C)C(=O)C3N2Nc2ccccc2)ccc1O (configuration not stated) please.
-2.21

Quote z-score reported for CC(=O)NCCCC[C@@H]1NC(=O)[C@@H]2C[C@H](C(=O)NCCCC[N+](C)(C)C)[C@H](c3ccc(O)cc3)N2C1=O please.
-0.606

Quote z-score reported for CN1C(=O)C2C=CC(C(O)COCc3ccccc3)N(N(c3ccccc3)c3ccccc3)C2C1=O (configuration not stated) please.
-3.79

Quote z-score reported for COc1ccc([Si](C)(C)[C@H]2[C@H](CC(=O)N(CCO)Cc3ccccc3)O[C@@]3(C(=O)N(Cc4cccc(N5CCOC5=O)c4)c4ccccc43)[C@@H]2C)cc1 please.
-1.79

Quote z-score reported for COCCOC(=O)N1C(=O)[C@@]2(c3cc(C#Cc4ccc(OC)cc4)ccc31)[C@H](C(=O)Nc1nc3ccccc3s1)[C@H]1C(=O)O[C@H](c3ccccc3)[C@H](c3ccccc3)N1[C@@H]2c1ccc(OCCO)cc1 please.
-1.59

Quote z-score reported for CN1C(=O)C2C=CC(C(O)c3ccccn3)N(N(c3ccccc3)c3ccccc3)C2C1=O (configuration not stated) please.
0.0262

###

Provide the reported composite z-score of each item.
tested on: XIP peptide (Xip251-270) binding; assay: small-molecule binders of XIP peptide, primary screen, biochemical, small-molecule microarray, fluorescence 635/667 nm, 0.1 µg/mL protein (AID 1182); conditions: fluorescent protein binding, 635 nm, higher = more signal, called active from +8 up or from −8 down
API note: the answer field is a bare number with no unit suffix.

Quote composite z-score reported for C=CCN1C(=O)[C@@]2(O[C@@H](CCn3cc([C@H](O)c4ccccc4)nn3)[C@H]([Si](C)(C)c3ccc(OC)cc3)[C@H]2C)c2cc(N3CCC3=O)ccc21 please.
-0.0195

Quote composite z-score reported for C[C@]1(C(=O)NC2CC2)c2ccccc2C(=O)N(Cc2ccccc2)[C@H]1c1ccc(CO)cc1 please.
-0.0942

Quote composite z-score reported for NCCCCCNC(=O)[C@@H]1C[C@@H]2C(=O)NCC(=O)N2[C@@H]1c1cccc(OCCO)c1 please.
0.318

Quote composite z-score reported for CN1C(=O)C2C=CC(C(O)C#Cc3ccccc3)N(Nc3ccccc3)C2C1=O (centres undefined) please.
0.783

###

test: binders of probe aFGF2 on microarray, primary screen, stem cell growth factor project, biochemical, small-molecule microarray, fluorescence 635/667 (AID 1067); settings: higher = more signal;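 further: measures binding of biotinylated aFGF2 protein to printed compounds on slides; z-score merges feature fluorescence and signal-to-noise across triplicate slides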
recorded-metric: composite z-score

Quote composite z-score reported for COc1ccc(-c2cc3c(c(CCc4ccccc4)n2)[Si](C(C)C)(C(C)C)OC3)cn1 please.
-0.0537

Quote composite z-score reported for C=CCN1Cc2ccccc2[C@H]2OC(c3ccc(OCCCO)cc3)=N[C@@]2(CC=C)C1=O please.
0.0188

Quote composite z-score reported for COCCOC(=O)N1C(=O)[C@@]2(c3cc(C#CC4=CCCCC4)ccc31)[C@H](c1ccccc1OCCO)N1[C@H](c3ccccc3)[C@H](c3ccccc3)OC(=O)[C@H]1[C@@H]2C(=O)N1CCCCCCC1 please.
0.0829

Quote composite z-score reported for COC(=O)C(CC#Cc1ccc2c(c1)[C@]1(C(=O)N2)[C@H](C(=O)N2CCN(c3ncccn3)CC2)[C@H]2C(=O)O[C@H](c3ccccc3)[C@H](c3ccccc3)N2[C@@H]1c1ccc(OCCO)cc1)C(=O)OC please.
-0.0768

Quote composite z-score reported for COc1ccc([Si](C)(C)[C@H]2[C@H](CCO)O[C@@]3(C(=O)N(Cc4cccc(N5C(=O)COc6ccccc65)c4)c4ccccc43)[C@@H]2C)cc1 please.
-0.0877

Quote composite z-score reported for COc1ccc(CCNC(=O)[C@@]2(Sc3ccc(C)cc3)CC(=O)N(C3Cc4ccccc4C3)[C@@H]2c2ccc(CO)cc2)cc1 please.
0.153

Quote composite z-score reported for COCCOC(=O)N1C(=O)[C@@]2(c3cc(C#CC4=CCCCC4)ccc31)[C@H](C(N)=O)[C@H]1C(=O)O[C@H](c3ccccc3)[C@H](c3ccccc3)N1[C@@H]2c1ccccc1OCCO please.
-0.0105

Quote composite z-score reported for COc1ccc([Si](C)(C)[C@@H]2[C@@H](CC(=O)N3Cc4ccccc4C[C@H]3CO)O[C@]3(C(=O)N(Cc4cccc(N5C(=O)c6cccc7cccc5c67)c4)c4ccccc43)[C@H]2C)cc1 please.
-0.0111

Quote composite z-score reported for C=C(COC)/C(=C/C[C@H](OC(=O)c1ccncc1)c1ccccc1OCCO)c1cnc2ccccc2c1 please.
-0.0524

Quote composite z-score reported for C=C(CCCC)/C(=C/C[C@@H](OC(=O)c1ccncc1)c1ccccc1OCCO)c1cnc2ccccc2c1 please.
0.165

Quote composite z-score reported for Cc1ccc(S[C@]2(C(=O)O)CC(=O)N(C3Cc4ccccc4C3)[C@@H]2c2ccc(CO)cc2)cc1 please.
0.0015

Quote composite z-score reported for O=C1O[C@H](c2ccccc2)[C@H](c2ccccc2)N2[C@H]1[C@@H](C(=O)NC[C@H](O)c1ccccc1)[C@]1(C(=O)Nc3ccc(C#CCCO)cc31)[C@H]2c1ccc(OCCO)cc1 please.
0.0521

Quote composite z-score reported for CCOC(=O)C[C@H]1[C@H](OC(=O)Cc2ccc3c(c2)OCO3)[C@@H](NC(=O)Cc2ccc(OC)cc2)c2cc(OCCCO)ccc2N1C(=O)c1ccc2ccccc2n1 please.
-0.104

Quote composite z-score reported for COCCCNC(=O)[C@]1(CCS(=O)(=O)c2ccccc2)N=C(c2ccc(OCCCO)cc2)O[C@@H]1c1ccccc1N=[N+]=[N-] please.
0.263

Quote composite z-score reported for CC(C)(C)OC(=O)CC[C@]1(C(=O)NCc2ccccc2)N=C(c2ccc(OCCCO)cc2)O[C@H]1c1ccccc1CN=[N+]=[N-] please.
0.119

Quote composite z-score reported for O=C(NCc1ccccc1)[C@@H]1c2ccccc2C(=O)N(Cc2ccccc2C(F)(F)F)[C@H]1c1ccc(CO)cc1 please.
-0.0451

Quote composite z-score reported for NC(N)=NCCCn1cc(CNC(=O)[C@@H](N)Cc2ccccc2)nn1 please.
0.0263

Quote composite z-score reported for COCCOC(=O)N1C(=O)[C@@]2(c3cc(C#CC4=CCCCC4)ccc31)[C@H](c1ccc(OCCO)cc1)N1[C@H](c3ccccc3)[C@H](c3ccccc3)OC(=O)[C@H]1[C@@H]2C(=O)N1CCN(c2ncccn2)CC1 please.
0.0664

Quote composite z-score reported for CC(C)[Si](C#CCCCC#N)(O[C@H](c1ccccc1)c1cn([C@H](CO)Cc2ccccc2)nn1)C(C)C please.
-0.168

Quote composite z-score reported for CCOC(=O)c1ccc(NC(=O)O[C@H]2[C@H](OC(=O)Nc3ccc4c(c3)OCO4)[C@H](OC(=O)Nc3ccc4c(c3)OCO4)[C@@H](OC)O[C@@H]2CO)cc1 please.
0.129

Quote composite z-score reported for COCC1=C2[C@@H](CCc3ccccc3)OB(O)C[C@@H]2[C@@H]2C(=O)C=CC(=O)[C@@H]2C1 please.
-0.051

Quote composite z-score reported for CCOC(=O)C[C@H]1[C@H](OC(=O)c2cc3ccccc3oc2=O)[C@@H](NC(=O)c2ccc(-c3ccccc3)cc2)c2cc(OCCCO)ccc2N1C(=O)c1ccccc1 please.
0.0407

Quote composite z-score reported for CCCNC(=O)[C@@]1(c2ccc([N+](=O)[O-])cc2)CC(=O)N(C2CCCCC2)[C@@H]1c1ccc(CO)cc1 please.
-0.0133

Quote composite z-score reported for COc1ccc(C#Cc2ccc3c(c2)[C@]2(C(=O)N3)[C@H](c3ccc(O)cc3)N3[C@H](c4ccccc4)[C@H](c4ccccc4)OC(=O)[C@H]3[C@@H]2C(=O)O)cc1 please.
-0.161

Quote composite z-score reported for C[N+](C)(C)CCCCCCNC(=O)[C@H]1C[C@H]2C(=O)N[C@@H](Cc3ccccc3)C(=O)N2[C@H]1c1ccc(O)cc1 please.
-0.0853

Quote composite z-score reported for C=CCOC(=O)[C@H]1[C@@H]2C(=O)O[C@@H](c3ccccc3)[C@@H](c3ccccc3)N2[C@@H](c2ccc(OCCOC(=O)[C@H]3C[C@H]4C(=O)N[C@@H](CC(C)C)C(=O)N4[C@H]3c3cccc(OCCO)c3)cc2)[C@]12C(=O)Nc1ccc(I)cc12 please.
-0.0442

###

assay: HepG2 liver cancer cell viability effects, profiling panel, resazurin fluorescence, 24 h, PK04 Diversity Set (AID 1172); conditions: higher = more signal
Provide the reported z-score of each item.
API note: the answer field is a bare number with no unit suffix.

Quote z-score reported for Cc1ccc(S[C@]2(C(=O)NCC(F)(F)F)CC(=O)N(C3CCCCC3)[C@@H]2c2ccc(CO)cc2I)cc1 please.
0.04

Quote z-score reported for COCCOC(=O)N1C(=O)[C@@]2(c3cc(C#Cc4ccc(OC)cc4)ccc31)[C@H](C(=O)Nc1nc3ccccc3s1)[C@H]1C(=O)O[C@H](c3ccccc3)[C@H](c3ccccc3)N1[C@@H]2c1ccc(O)cc1 please.
-0.154

Quote z-score reported for [N-]=[N+]=Nc1ccccc1[C@@H]1OC(c2ccc(OCCCO)cc2)=N[C@]1(Cc1ccccc1)C(=O)NCC(O)CO (stereo partly drawn) please.
0.0381
